Below, each entry is listed alongside its reported Fold increase in potency compared to Chimeric Ab.
biological target: human Siglec-7 on primary human monocyte-derived dendritic cells (human, UniProt Q9Y286 19-467); assay: cell-based or functional assay
Sequence (Q9Y286 19-467): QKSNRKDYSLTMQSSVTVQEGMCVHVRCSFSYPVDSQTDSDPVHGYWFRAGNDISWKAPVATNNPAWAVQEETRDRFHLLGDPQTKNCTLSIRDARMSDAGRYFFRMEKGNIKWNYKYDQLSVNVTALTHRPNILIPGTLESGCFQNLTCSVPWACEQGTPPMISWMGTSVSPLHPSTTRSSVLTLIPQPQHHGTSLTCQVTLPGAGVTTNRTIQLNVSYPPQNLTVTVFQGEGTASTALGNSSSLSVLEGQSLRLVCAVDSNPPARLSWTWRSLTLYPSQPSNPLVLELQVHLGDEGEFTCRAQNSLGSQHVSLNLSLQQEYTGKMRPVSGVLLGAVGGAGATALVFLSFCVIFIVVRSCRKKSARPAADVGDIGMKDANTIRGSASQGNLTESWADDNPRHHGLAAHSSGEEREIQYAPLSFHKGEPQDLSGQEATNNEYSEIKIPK
Response body: numeric value in fold, unit text excluded.

Past entries and their recorded results:
binder | numeric_result
S7AB-H8.34 (antibody, V domains shown) VH: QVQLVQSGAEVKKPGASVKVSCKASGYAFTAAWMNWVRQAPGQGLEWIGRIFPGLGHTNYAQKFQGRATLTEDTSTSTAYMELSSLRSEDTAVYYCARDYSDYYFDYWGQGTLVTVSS VL: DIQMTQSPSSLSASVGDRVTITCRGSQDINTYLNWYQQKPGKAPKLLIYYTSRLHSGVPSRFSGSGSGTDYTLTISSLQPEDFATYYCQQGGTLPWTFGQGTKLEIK | 8.7
S7AB-H8.1 (antibody, V domains shown) VH: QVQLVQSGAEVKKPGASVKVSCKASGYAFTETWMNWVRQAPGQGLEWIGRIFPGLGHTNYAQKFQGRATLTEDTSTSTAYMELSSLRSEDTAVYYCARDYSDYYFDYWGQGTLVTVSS VL: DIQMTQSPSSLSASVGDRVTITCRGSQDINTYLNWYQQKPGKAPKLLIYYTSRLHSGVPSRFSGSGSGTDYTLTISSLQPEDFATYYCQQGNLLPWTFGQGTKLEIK | 8.7

Fold increase in potency compared to Chimeric Ab reading for S7AB-H8.41 (antibody, V domains shown) VH: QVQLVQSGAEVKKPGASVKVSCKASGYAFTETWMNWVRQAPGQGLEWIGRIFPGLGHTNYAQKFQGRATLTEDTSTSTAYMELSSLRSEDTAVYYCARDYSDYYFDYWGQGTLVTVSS VL: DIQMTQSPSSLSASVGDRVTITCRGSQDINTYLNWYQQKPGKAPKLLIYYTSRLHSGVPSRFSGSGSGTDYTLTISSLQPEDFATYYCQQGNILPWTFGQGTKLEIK : 9.5
